System: TSSK1B
STUDY_CONDITIONS: concentration: 1 μM, replicates: in singlicate; n = 1;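 note: KINOMEscan kinase panel screen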
%Inh values for the compounds below.

1. COc1cc2c(cc1OC[C@@H](O)CO)ncc1c3ccc(C#N)cc3[nH]c21 ... 3%
2. CCn1cnc2c(N)ncnc21 ... 20%
3. Fc1ccc(-c2ncn(CCCN3CCOCC3)c2-c2cccnc2)cc1 ... 0%

Problem: Consider the compound shown here: "O=c1cc(N2CCOCC2)nc2n(Cc3cccc4ccccc34)ccn12" What is its recorded %Inh?
Solution: 13%

Problem: Entry "O=c1cc(N2CCOCC2)nc2n(Cc3cccc(Cl)c3Cl)c(C3CC3)nn12" please
Solution: 0%

Problem: Entry "CC(=O)Nc1ccc(COc2ccc(Nc3ccnc4cc(-c5ccccn5)ccc34)cc2)cc1.Cl" please
Solution: 1%

Problem: Entry "O=C1Cc2cc(Nc3nc(NCc4cccc(S(=O)(=O)C(F)(F)F)c4)ncc3C(F)(F)F)ccc2N1" please
Solution: 19%

Problem: Entry COc1ccc(CNC(=O)NC2CCN(c3ccnc(Nc4ccc(OC)cc4)n3)C2)cc1 (stereo not drawn) please
Solution: 13%

====

Test system: TRKB
STUDY_CONDITIONS: concentration: 1 μM, replicates: in singlicate; n = 1
Values of %Inh greater than or equal to 10% map to T; values below map to F.

1) O=c1cc(N2CCOCC2)nc2n(Cc3cccc(F)c3)ccn12 ... T

Problem: Hi, just wondering whether "Cl.Nc1ncnc2occ(-c3ccc(NC(=O)Nc4cc(C(F)(F)F)ccc4F)cc3)c12" shows %Inh of 10% or higher.
Solution: T

Problem: Entry "O=C(c1ccc(-c2cc(-c3c[nH]nc3-c3ccccn3)ccn2)cc1)N1CCOCC1" please
Solution: F

Problem: Entry "CNc1ncnc2[nH]ncc12" please
Solution: F

Problem: Entry "CC(C)Oc1ccc2c(-c3ccnc(Nc4ccc(N5CCN(C)CC5)cc4)n3)cnn2n1" please
Solution: T

====

%Inh values for the compounds below.
Test system: STK33
STUDY_CONDITIONS: concentration: 1 μM, replicates: in singlicate; n = 1
# number only, unit % dropped from output

Problem: Consider the compound shown here: "Nc1nccc(-c2c(-c3ccc(F)cc3)ncn2C2CCN(CC(F)(F)F)CC2)n1" What is its recorded %Inh?
Solution: 0

Problem: Entry "O=C1NC(=O)C(N2CCc3ccccc32)=C1c1cccc(Cl)c1" please
Solution: 0

Problem: Entry Cc1nnc(-c2ccc3ncc(-c4ccc(S(C)=O)cc4)n3c2)o1 (stereo not shown) please
Solution: 1

Problem: Entry Cc1c(Cn2c(C)nn3c(=O)cc(N4CCOC(C)C4)nc23)cccc1C(F)(F)F (stereo not shown) please
Solution: 0

Problem: Entry "COc1ccc(Nc2ncc(C#N)c(Nc3ccccc3C(N)=O)n2)cc1N1CCN(C)CC1.Cl" please
Solution: 99.2

====

System: TAOK2
STUDY_CONDITIONS: concentration: 1 μM, replicates: in singlicate; n = 1
%Inh values for the molecules below.
# number only, unit % dropped from output

1) COc1cc2ncn(-c3cc(OCc4sccc4Cl)c(C(N)=O)s3)c2cc1OC [GSK448459] ... 0
2) CNc1ncnc2[nH]ncc12 [SKF-18355] ... 24

Problem: Consider the molecule shown here: "CCc1nc(-c2cccc(C)c2)c(-c2ccnc(NCc3ccccc3)c2)s1" What is its recorded %Inh?
Solution: 0

Problem: Entry O=c1cc(N2CCOCC2)nc2n(Cc3cccc(F)c3)ccn12 [GSK2297430] please
Solution: 0

Problem: Entry O=C(NCCCN1CCOCC1)c1cccc(Nc2nccc(Nc3ccc(Oc4ccccc4)cc3)n2)c1 [GW663929] please
Solution: 0

Problem: Entry O=C(NCCNc1ccnc(Nc2ccc(F)cc2)n1)Nc1ccccc1F [GSK1379880] please
Solution: 0

Problem: Entry "Cn1ccc2ncnc(Oc3ccc(NC(=O)Nc4ccncc4)c(Cl)c3)c21" please
Solution: 0

Problem: Entry COc1ccc(Nc2ncc(C#N)c(Nc3ccccc3C(N)=O)n2)cc1N1CCN(C)CC1.Cl [GSK1558669] please
Solution: 51

Problem: Entry Cc1cccc(-c2nc(Nc3ccc4ncsc4c3)c3ccccc3n2)n1 [GW867588] please
Solution: 0

Problem: Entry Nc1nc(-c2ccc3c(N)n[nH]c3c2)cc(N2CCCC2)n1 [GSK2227430] please
Solution: 0

Problem: Entry CC(=O)Nc1ccc(COc2ccc(Nc3ccnc4cc(-c5ccccn5)ccc34)cc2)cc1.Cl [GW440148] please
Solution: 0

Problem: Entry O=C(NCCNc1ccnc(Nc2ccc(F)cc2)n1)c1cc2ccccc2s1 [GSK1379874] please
Solution: 0

Problem: Entry COc1ccc(CNC(=O)NC2CCN(c3ccnc(Nc4ccc(OC)cc4)n3)C2)cc1 (stereo not shown) [GSK1379727] please
Solution: 7

Problem: Entry CCn1cnc2c(N)ncnc21 [GW345098] please
Solution: 4

Problem: Entry O=c1cc(N2CCOCC2)nc2n(Cc3cccc(Cl)c3Cl)c(C3CC3)nn12 [GSK2358994] please
Solution: 0

Problem: Entry Cl.Oc1cccc(Nc2ccnc3cc(-c4ccncc4)ccc23)c1 [GW494601] please
Solution: 0

====

System: EPHA8
STUDY_CONDITIONS: concentration: 1 μM, replicates: in singlicate; n = 1
Values of %Inh greater than or equal to 9% map to True; values below map to False.

# count of solved cases: 2
1) CN(C(=O)c1ccc(-c2cc(-c3c[nH]nc3-c3ccccn3)ccn2)cc1)C1CCOCC1 ... False
2) O=c1cc(N2CCOCC2)nc2n(Cc3cccc(F)c3)ccn12 ... True

Problem: Hi, just wondering whether "CN1c2ccc(CNc3ccc(F)cc3)cc2-c2c(cnn2C)S1(=O)=O" shows %Inh of 9% or higher.
Solution: False

====

Test system: CSNK1G1
STUDY_CONDITIONS: concentration: 1 μM, replicates: in singlicate; n = 1
PROPERTY_LABEL: %Inh (%)
# number only, unit % dropped from output

1. CN1c2ccc(CNc3ccc(F)cc3)cc2-c2c(cnn2C)S1(=O)=O ... 0
2. O=c1cc(N2CCOCC2)nc2n(Cc3cccc4ccccc34)ccn12 ... 0
3. COc1cc2c(cc1OC[C@@H](O)CO)ncc1c3ccc(C#N)cc3[nH]c21 ... 0
4. N#Cc1c(N2CCOCC2)sc(-c2ccn[nH]2)c1-c1ccc(Cl)cc1 ... 0
5. COCCNC(=O)c1ccc(-c2cc(C(=O)NC3CC3)cc(F)c2C)cc1 ... 0
6. COc1ccc(Nc2nccc(N3CCC(NC(=O)Nc4cc(C)ccc4C)C3)n2)cc1 (stereo not drawn) ... 0
7. Cc1nnc(-c2ccc3ncc(-c4ccc(S(C)=O)cc4)n3c2)o1 (stereo not drawn) ... 24
8. CCc1nc(-c2cccc(C)c2)c(-c2ccnc(NCc3ccccc3)c2)s1 ... 0
9. CNc1ncnc2[nH]ncc12 ... 0
10. Cc1c2ccc(N(C)c3ccnc(Nc4cccc(S(N)(=O)=O)c4)n3)cc2nn1Cc1ccccc1.Cl.Cl ... 0

Problem: Consider the compound shown here: "Nc1nccc(-c2c(-c3ccc(F)cc3)ncn2C2CCN(CC(F)(F)F)CC2)n1" What is its recorded %Inh?
Solution: 0

Problem: Entry "O=C(NCCCN1CCOCC1)c1cccc(Nc2nccc(Nc3ccc(Oc4ccccc4)cc3)n2)c1" please
Solution: 18

Problem: Entry "NS(=O)(=O)c1cccc(-c2ccc3nccc(-c4cccc(S(N)(=O)=O)c4)c3c2)c1" please
Solution: 0

Problem: Entry "[2H]C([2H])(c1cccc(C(F)(F)F)c1C)n1ccn2c(=O)nc(N3CCOCC3)cc12" please
Solution: 9

Problem: Entry "Fc1ccc(-c2ncn(CCCN3CCOCC3)c2-c2ccccn2)cc1" please
Solution: 5

Problem: Entry "Cc1cccc(-c2nc(-c3ccc(S(C)(=O)=O)cc3)sc2-c2ccncc2)c1" please
Solution: 0

Problem: Entry "Cc1cccc(Cn2ccn3c(=O)cc(N4CCOCC4)nc23)c1" please
Solution: 27

Problem: Entry "Cc1ccc(C(=O)NCC(N)=O)cc1-n1c(C)cc(OCc2ccc(F)cc2F)c(Br)c1=O" please
Solution: 22

====

%Inh values for the compounds below.
Tested on: CDK4-cyclinD1
STUDY_CONDITIONS: concentration: 1 μM, replicates: in singlicate; n = 1
# number only, unit % dropped from output

1) Cc1cccc(-c2nc(-c3ccc(S(C)(=O)=O)cc3)sc2-c2ccncc2)c1 ... 0

Problem: Consider the compound shown here: "Cc1cn2c(=O)cc(N3CCOCC3)nc2n1Cc1cccc(Cl)c1Cl" What is its recorded %Inh?
Solution: 0

Problem: Entry "CN(C1=C(c2ccccc2)C(=O)NC1=O)c1ccccc1" please
Solution: 0

Problem: Entry "[2H]C([2H])(c1cccc(C(F)(F)F)c1C)n1ccn2c(=O)nc(N3CCOCC3)cc12" please
Solution: 0

Problem: Entry "COc1ccc(S(=O)(=O)NC2CCN(c3cc(C)nc(Nc4cccc(C#N)c4)n3)CC2)cc1.O=C(O)C(F)(F)F" please
Solution: 0

Problem: Entry "CN(C(=O)c1ccc(-c2cc(-c3c[nH]nc3-c3ccccn3)ccn2)cc1)C1CCOCC1" please
Solution: 31
